Molecular target: beta-amyloid (Aβ42 aggregate) (Homo sapiens, UniProt P05067)
Construct: 10 μM of Ab42 fibrils
Sequence (P05067 672-713 limits assumed): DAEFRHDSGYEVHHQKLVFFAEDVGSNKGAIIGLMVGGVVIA
Assay: Evaluation of activity (fluorescence) before and after binding to beta-amyloid
Details: before vs after binding to Aβ42 aggregate
Description: Regarding each of the Compound 1, Compound 2, Compound 4, and Compound 5 synthesized above, the activity before and after binding to beta-amyloid was evaluated, and the results thereof are shown in FIG. 3. […] In particular, regarding the fluorescence reactivity to the Aβ peptide, the Faβ/F0 values of the Compounds 1, 2, 4, and 5 were 4.3, 11.6, 3.1, and 9.6, respectively, indicating high fluorescence properties (see Table 2 below). […]
What Change in fluorescence intensity after binding to beta-amyloid was measured for each of the following?
Answers are plain numbers, in fold.

CN(C)c1ccc(/C=C/C2=[N+](CCCCS(=O)(=O)[O-])c3ccc4ccccc4c3C2(C)C)cc1 : 4.3
CC1(C)C(/C=C/c2ccc(N3CCNCC3)cc2)=[N+](CCCCS(=O)(=O)[O-])c2ccc3ccccc3c21 : 3.1

Hi! Can you tell me Change in fluorescence intensity after binding to beta-amyloid for each of these molecules?
1. CN(C)c1ccc(-c2ccc(/C=C/C3=[N+](CCCCS(=O)(=O)[O-])c4ccc5ccccc5c4C3(C)C)s2)cc1
2. CNc1ccc(-c2ccc(/C=C/C3=[N+](CCCCS(=O)(=O)[O-])c4ccc5ccccc5c4C3(C)C)s2)cc1

1. 11.6
2. 9.6

* * *

Molecular target: Ab42 fibrils (Homo sapiens)
Construct: 10 μM of Ab42 fibrils
Sequence (P05067 672-713 limits assumed): as above
Assay: Measurement of maximum excitation and emission wavelengths (SpectraMax M2)
Type: physicochemical
Details: 10 μM Ab42 fibrils, 5 μM compound, PBS buffer
Provide the recorded λem for the entries that follow.
Answers are plain numbers, in nm.

# count of solved cases: 3
CN(C)c1ccc(/C=C/C2=[N+](CCCCS(=O)(=O)[O-])c3ccc4ccccc4c3C2(C)C)cc1 [Compound 1] : 620
CNc1ccc(-c2ccc(/C=C/C3=[N+](CCCCS(=O)(=O)[O-])c4ccc5ccccc5c4C3(C)C)s2)cc1 [Compound 5] : 760
CN(C)c1ccc(-c2ccc(/C=C/C3=[N+](CCCCS(=O)(=O)[O-])c4ccc5ccccc5c4C3(C)C)s2)cc1 [Compound 2] : 765

For the next question, use this compound.
# get_value(readout='λem', item= CC1(C)C(/C=C/c2ccc(N3CCNCC3)cc2)=[N+](CCCCS(=O)(=O)[O-])c2ccc3ccccc3c21 [Compound 4] )
620

* * *

Biological target: beta-amyloid (Aβ42 aggregate) (Homo sapiens, UniProt P05067)
Construct: 10 μM of Ab42 fibrils
Experiment: Evaluation of activity (fluorescence) before and after binding to beta-amyloid
Conditions: before vs after binding to Aβ peptide
Measured property: Faβ/F0 (fluorescence reactivity to the Aβ peptide)
Give bare numbers.

Illustrative cases are given below, each with its answer.
CC1(C)C(/C=C/c2ccc(N3CCNCC3)cc2)=[N+](CCCCS(=O)(=O)[O-])c2ccc3ccccc3c21 : 3.1
CN(C)c1ccc(/C=C/C2=[N+](CCCCS(=O)(=O)[O-])c3ccc4ccccc4c3C2(C)C)cc1 : 4.3

Give Faβ/F0 (fluorescence reactivity to the Aβ peptide) for all compounds that follow.
1. CNc1ccc(-c2ccc(/C=C/C3=[N+](CCCCS(=O)(=O)[O-])c4ccc5ccccc5c4C3(C)C)s2)cc1
2. CN(C)c1ccc(-c2ccc(/C=C/C3=[N+](CCCCS(=O)(=O)[O-])c4ccc5ccccc5c4C3(C)C)s2)cc1

[9.6, 11.6]

* * *

Biological target: Ab42 fibrils (Homo sapiens)
Construct: 10 μM of Ab42 fibrils
Test: Measurement of maximum excitation and emission wavelengths (SpectraMax M2)
Type: physicochemical
Details: 10 μM Ab42 fibrils, 5 μM compound, PBS buffer
Measured property: λex

For orientation, consider the following solved cases.
CN(C)c1ccc(-c2ccc(/C=C/C3=[N+](CCCCS(=O)(=O)[O-])c4ccc5ccccc5c4C3(C)C)s2)cc1 [Compound 2] : 805 nm
CC1(C)C(/C=C/c2ccc(N3CCNCC3)cc2)=[N+](CCCCS(=O)(=O)[O-])c2ccc3ccccc3c21 [Compound 4] : 570 nm
CN(C)c1ccc(/C=C/C2=[N+](CCCCS(=O)(=O)[O-])c3ccc4ccccc4c3C2(C)C)cc1 [Compound 1] : 560 nm

# input for lookup
// λex lookup, key: CNc1ccc(-c2ccc(/C=C/C3=[N+](CCCCS(=O)(=O)[O-])c4ccc5ccccc5c4C3(C)C)s2)cc1 [Compound 5]
575 nm
